Procedure text: Inhibition of glucose-induced insulin secretion in Wistar rat pancreatic islets incubated for 90 mins in presence of 16.7 mM glucose by radioimmunological assay
Assay type: functional, tissue-based
Applied conditions: Pancreatic islet, 1.5 h
Assay readout: IC50 (nM)
Just the number please, in nM, no unit attached.

-- ask Looking for the measured IC50 of CC(C)(C)OC(=O)Nc1ccc2c(c1)C(NC(=O)Nc1cccc(C#N)c1)CC(C)(C)O2 (racemic) , can you help?
-- reply 240

---

System: Aorta
Procedure text: Myorelaxant activity in aortic rings isolated from Wistar rat assessed as reduction in 30 mM KCl-induced contractions in presence of 10 uM KATP channel blocker glibenclamide
Type: functional, tissue-based
Assay readout: EC50
A bare number is not enough; add the unit after it.

-- ask Could you tell me which EC50 is on file for CC(C)(C)OC(=O)Nc1ccc2c(c1)C(NC(=O)Nc1cccc(C#N)c1)CC(C)(C)O2 (racemic) ?
-- reply 9.4 µM
